Target: T1, monomeric human sBCMA (Homo sapiens, UniProt Q02223)
T1 construct: is comprised of the entire extracellular domain of the molecule; purchased GenScript
T1 sequence (Q02223 1-54 limits assumed): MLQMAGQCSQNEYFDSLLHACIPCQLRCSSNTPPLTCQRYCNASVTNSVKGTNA
Assay: Kinetics/affinity measurement by SPR (BioRad ProteOn XPR36), antibody captured by anti-Fc, sBCMA flowed over
Assay type: binding
Conditions: unit inferred
Quantity name: Kd (nM)
The reply should be a number in nM, with the unit left off.

So for N22: lead optimized clone of 15B2GL; VH SEQ ID NO: 17, VL SEQ ID NO: 18 (antibody, V domains shown) VH: EVQLVESGGGLVKPGGSLRLSCAASGFTFSSYSMNWVRQAPGKGLEWVSSISGSSNYIYYADSVKGRFTISRDNAKNSLYLQMNSLRAEDTAVYYCARGGNYFVEYFQYWGQGTLVTVSS VL: EIVLTQSPGTLSLSPGERATLSCRASQYISSNYLAWYQQKPGQAPRLLIYGASNRATGIPDRFSGSGSGTDFTLTISRLEPEDFAVYYCQQYSSSPITFGQGTKLEIK , the logged Kd turned out to be 16.3

So for L15: lead optimized clone of 15B2GL; VH SEQ ID NO: 13, VL SEQ ID NO: 14 (antibody, V domains shown) VH: EVQLVESGGGLVKPGGSLRLSCAASGFTFSSYSMNWVRQAPGKGLEWVSSISGQSNYIYYADSVKGRFTISRDNAKNSLYLQMNSLRAEDTAVYYCARGGNYFVEYFQYWGQGTLVTVSS VL: EIVLTQSPGTLSLSPGERATLSCRASQYISSNNLAWYQQKPGQAPRLLIYGASNRATGIPDRFSGSGSGTDFTLTISRLEPEDFAVYYCQQYADSPITFGQGTKLEIK , the logged Kd turned out to be 4.51

So for M02: lead optimized clone of 15B2GL; VH SEQ ID NO: 15, VL SEQ ID NO: 16 (antibody, V domains shown) VH: EVQLVESGGGLVKPGGSLRLSCAASGFTFSSYSMNWVRQAPGKGLEWVSSISGQSNYIYYADSVKGRFTISRDNAKNSLYLQMNSLRAEDTAVYYCARGGNYYVEYFQYWGQGTLVTVSS VL: EIVLTQSPGTLSLSPGERATLSCRASQYISSNNLAWYQQKPGQAPRLLIYGASNRATGIPDRFSGSGSGTDFTLTISRLEPEDFAVYYCQQYSSDPITFGQGTKLEIK , the logged Kd turned out to be 9.95

So for I09: lead optimized clone of 15B2GL; VH SEQ ID NO: 11, VL SEQ ID NO: 12 (antibody, V domains shown) VH: EVQLVESGGGLVKPGGSLRLSCAASGFTFSSYSMNWVRQAPGKGLEWVSSISGSSNYIYYADSVKGRFTISRDNAKNSLYLQMNSLRAEDTAVYYCARGGNYFVEYFQQWGQGTLVTVSS VL: EIVLTQSPGTLSLSPGERATLSCRASQYISSNYLAWYQQKPGQAPRLLIYGASNRATGIPDRFSGSGSGTDFTLTISRLEPEDFAVYYCQQYSSDPITFGQGTKLEIK , the logged Kd turned out to be 9.82

All values here come from patent US11912782B2.
